Target: T1, neuropilin-1 (NRP1) on HEK293 cells overexpressing NRP1 (UniProt O14786 22-923, limits assumed)
T1 construct: whole, on cells
Assay: flow cytometry, HEK293-NRP1 vs HEK293
Property: 100 nM FACS (MFI Ratio); scope: individual binders
Output: the number by itself.

Known results for binders:
Binder	Result Number
NRP1-88 (VHH) VHH: EVQLVESGGGLVQPGGSLRLSCAASGGIFSRYDMGWFRQAPGKEREFVATITSTGDTYADSVKGRFTISADNSKNTAYLQMNSLKPEDTAVYYCARLGGNSEYYYYYGMDVWGQGTLVTVSS	2.8
NRP1-83 (VHH) VHH: EVQLVESGGGLVQPGGSLRLSCAASGSIGREVAMGWFRQAPGKERELVATIWWTFDAPYYADSVKGRFTISADNSKNTAYLQMNSLKPEDTAVYYCAAYQAGWGDWGQGTLVTVSS	6.9

Request: What 100 nM FACS (MFI Ratio) value was documented for this binder, NRP1-73 (VHH) VHH: EVQLVESGGGLVQPGGSLRLSCAASGFTFSGNWMGWFRQAPGKERELVAVILRGGSTNYADSVKGRFTISADNSKNTAYLQMNSLKPEDTAVYYCAVKIYSGSYSSPPGYNWGQGTLVTVSS ?
Result: 5.9

Request: What 100 nM FACS (MFI Ratio) value was documented for this binder, NRP1-136 (antibody, IgG2, V domains shown) VH: EVQLLESGGGLVQPGGSLRLSCAASGFTFKDYGMNWVRQAPGKGLEWVSVISGSGGRPNYADSVKGRFTISRDNSKNTLYLQMNSLRAEDTAVYYCARVWRNHLDYWGQGTLVTVSS VL: DIQMTQSPSSLSASVGDRVTITCSGDRLGEKYVSWYQQKPGKAPKLLIYGKKNRPSGVPSRFSGSGSGTDFTLTISSLQPEDFATYYCQAWASSTVVFGQGTKVEIK ?
Result: 128

Request: What 100 nM FACS (MFI Ratio) value was documented for this binder, NRP1-299 (antibody, IgG2, V domains shown) VH: EVQLLESGGGLVQPGGSLRLSCAASGFTFRRYAMSWVRQAPGKGLEWVATISGSGGSTYYADSVKGRFTISRDNSKNTLYLQMNSLRAEDTAVYYCARGGNGSNRRPSLLPRNRAAAIGFESAFDVWGQGTLVTVSS VL: DIQMTQSPSSLSASVGDRVTITCRASQTIANYLNWYQQKPGKAPKLLIYRASRLQSGVPSRFSGSGSGTDFTLTISSLQPEDFATYYCQQSYNTPYTFGGGTKVEIK ?
Result: 2.5

Request: What 100 nM FACS (MFI Ratio) value was documented for this binder, NRP1-104 (VHH) VHH: EVQLVESGGGLVQPGGSLRLSCAASGFSFDDYVMGWFRQAPGKEREFVARISTSGSWTGYADSVKGRFTISADNSKNTAYLQMNSLKPEDTAVYYCAINYSPGYPDHWGQGTLVTVSS ?
Result: 6.2

Request: What 100 nM FACS (MFI Ratio) value was documented for this binder, NRP1-37 (VHH) VHH: EVQLVESGGGLVQPGGSLRLSCAASGRTFSIYAMGWFRQAPGKERELVAAISRTGGSTYYADSVKGRFTISADNSKNTAYLQMNSLKPEDTAVYYCAADRMYRPVGNQYDWGQGTLVTVSS ?
Result: 8.8

These data points were gathered from patent US20230265198A1.
